These entries and their values trace back to PubChem BioAssay.

experiment: antimalarial activity against Dd2 strain (AID 2302);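 also: 0% = DMSO untreated growth and 100% = chloroquine plus artemisinin killed control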; settings: P. falciparum Dd2 in RBCs, LDH growth readout, 72 h; at 2 µM
Calls of active or inactive are those of the source.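 The calls were made as follows: active = growth inhibition above 50% at the single 2 µM test dose, taken to imply half-maximal potency below 2 µM; inactive = the rest.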
Outcome codes: 1.0 = active, 0.0 = inactive

# Compound, Category
rows = [
    ("Cc1nc(C)c(-c2ccc(Oc3ccc(OC(F)(F)F)cc3)cc2)c(OC(=O)N(CCNC(C)C)C(C)C)c1Br", 1.0),
    ("CCOC(=O)c1c(C)n(C2CCCCCC2)c2cc(Br)c(O)cc12", 0.0),
    ("CCC(C)CN1CCC(N(C)c2cc(NC(=O)c3ccc(F)cc3)ccn2)CC1 (centres undefined)", 0.0),
    ("CCCCCC(C)C(C)c1cc(O)c2c(c1)OC(C)(C)c1cnccc1-2 (centres undefined)", 1.0),
    ("CN(CC(=O)N1CCN(S(=O)(=O)c2cccc(Cl)c2)CC1CN1CCCC1)c1ccc(Cl)c(Cl)c1 (centres undefined)", 0.0),
    ("O=C1COc2ccccc2N1CCN1CCC(NCc2ccc(-c3cccs3)cc2)CC1", 0.0),
    ("O=C(/C=C/c1ccc(Cl)c(Cl)c1)NC[C@@H]1CCC[C@H](CN2CCC(c3c[nH]c4ccccc34)CC2)C1", 0.0),
    ("COC(=O)/C=C/c1ccc(CC(C)NCC(O)c2cccc(Br)c2)cc1 (centres undefined)", 1.0),
    ("CNCCCCCCOc1ccc(CC(C)NCC(O)c2cccc(C(F)(F)F)c2)cc1 (centres undefined)", 1.0),
]

---

experiment: liver-stage malaria parasite growth inhibition, primary screen, cell-based, HepG2, luciferase luminescence, HepG2 viability (AID 624349);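 also: 100% = mean of DMSO negative control wells on the same plate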; conditions: P. berghei liver stage in HepG2, luciferase luminescence, concentration not given here; measured here: HepG2 viability without parasites
Examples of compounds with documented viability follow.

# Compound, Uom, viability
data = [
    ("C[C@@H](N)[C@H](O)c1ccccc1", "%", 76),
    ("C[C@]12CC[C@H]3[C@@H](CC[C@]4(O)C[C@@H](O)CC[C@]34C=O)[C@@]1(O)CC[C@@H]2C1=CC(=O)OC1", "%", 54),
    ("COc1ccc2c(c1)/C(=C/c1cnc[nH]1)C(=O)N2", "%", 98.5),
    ("c1ccc2c(c1)Nc1ccccc1S2", "%", 65.3),
    ("Oc1ccc2c3c1OC1C(O)CC[C@@]4(O)[C@@H](C2)N(CC2CCC2)CC[C@]314 (stereo not given in full)", "%", 141),
]

---

assay: suppressors of polyglutamine aggregation in yeast, 75Q-TubH (AID 1616); details: S. cerevisiae 75Q-TubH polyglutamine aggregation suppression; stronger effect = higher value
Endpoint: aggregation suppression score

# Compound, Reading
data = [
    ("CCC(C)C(=O)O[C@H]1[C@H](O)C2C(CN3CC(C)CCC3[C@@]2(C)O)C2C[C@]34O[C@]5(O)C(OC(=O)C(C)(O)C(C)O)CC[C@@]3(C)C5C(OC(C)=O)[C@@H](OC(C)=O)C4[C@@]21O (stereo not given in full)", 1.75),
    ("COc1ccc2c(c1)[C@]13CCCC[C@H]1[C@H](C2)N(C)CC3", 1.29),
    ("CC[n+]1c(-c2ccccc2)c2cc(N)ccc2c2ccc(N)cc21", 0.0827),
    ("CC(C)(C)NCC(O)c1cc(Cl)c(N)c(Cl)c1 (stereo not given)", 1.64),
    ("[N-]=[N+]=CC(=O)OCC(N)C(=O)O (stereo not given)", 0.586),
    ("CN1C[C@H](CO)C=C2c3cccc4[nH]cc(c34)C[C@H]21", 1.67),
    ("O=P1(N(CCCl)CCCl)NCCCO1 (stereo not given)", 1.14),
    ("COc1ccc(C[C@H]2NC[C@H](O)[C@H]2OC(C)=O)cc1", 0.0246),
    ("CC(C)N(CCC(C(N)=O)(c1ccccc1)c1ccccn1)C(C)C (stereo not given)", 1.38),
    ("C[C@@H]([C@H](O)c1ccccc1)N(C)C", 1.19),
    ("CC(C)(O)[C@@H]1[C@H]2OC(=O)[C@@H]1[C@]1(O)C[C@H]3O[C@]34C(=O)O[C@H]2[C@]14C", 1.53),
    ("N#C/C(=C\\c1ccc(O)cc1)C(=O)O", 1.17),
    ("O=c1oc2ccccc2c(O)c1Cc1c(O)c2ccccc2oc1=O", 1.26),
    ("COc1ccc(C(=O)N2CCCC2=O)cc1", 1.16),
    ("O=[N+]([O-])O[C@H]1CO[C@H]2[C@@H]1OC[C@H]2O[N+](=O)[O-]", 1.27),
    ("O=c1[nH]c2ccccc2n1C1CCN(CCCC(c2ccc(F)cc2)c2ccc(F)cc2)CC1", 1.1),
    ("c1ccc2nc(N3CCNCC3)ccc2c1", 1.33),
    ("CCC(C)[C@H]1O[C@]2(C=C[C@@H]1C)C[C@@H]1C[C@@H](C/C=C(\\C)[C@@H](OC3C[C@H](OC)C(O[C@H]4C[C@H](OC)[C@@H](O)[C@H](C)O4)[C@H](C)O3)[C@@H](C)/C=C/C=C3\\CO[C@@H]4[C@H](O)C(C)=C[C@@H](C(=O)O1)[C@]34O)O2 (stereo not given in full)", 1.02),
    ("CN(C)C(=S)SSC(=S)N(C)C", 0.0152),
    ("CN1C(=O)C(O)N=C(c2ccccc2)c2cc(Cl)ccc21 (stereo not given)", 1.05),
]
